target: Aromatase (Homo sapiens, UniProt P11511); assay: Ratio of Ki to Km for human placental cytochrome P450 19A1
Sequence (P11511 whole entry): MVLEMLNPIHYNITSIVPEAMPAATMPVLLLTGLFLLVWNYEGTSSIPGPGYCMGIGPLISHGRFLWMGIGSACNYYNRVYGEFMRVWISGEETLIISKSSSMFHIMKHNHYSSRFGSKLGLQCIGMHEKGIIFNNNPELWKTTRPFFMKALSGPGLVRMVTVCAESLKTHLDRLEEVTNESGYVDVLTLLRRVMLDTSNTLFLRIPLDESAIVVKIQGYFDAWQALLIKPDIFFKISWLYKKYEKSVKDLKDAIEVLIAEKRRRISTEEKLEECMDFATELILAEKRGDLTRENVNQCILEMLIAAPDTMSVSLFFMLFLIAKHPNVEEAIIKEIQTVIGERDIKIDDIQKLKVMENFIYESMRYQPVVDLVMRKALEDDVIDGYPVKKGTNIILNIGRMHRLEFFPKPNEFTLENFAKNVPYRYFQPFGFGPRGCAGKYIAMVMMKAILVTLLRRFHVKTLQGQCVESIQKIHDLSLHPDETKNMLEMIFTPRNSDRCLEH
recorded-metric: Ratio
API doc: respond with a numeric literal and nothing else, no unit.

Reading of Ratio for CCC(=O)C1(C)CCC2C(CCC3=CC(=O)C=CC32C)C1 (centres undefined) with Aromatase (Homo sapiens, UniProt P11511): 1833

Reading of Ratio for CC12CCCC1C1CCC3=CC(=O)C=CC3(C)C1CC2 (centres undefined) with Aromatase (Homo sapiens, UniProt P11511): 8.8

Reading of Ratio for C[C@]12CCC(=O)C[C@@H]1CC[C@@H]1[C@@H]2CC[C@]2(C)[C@@H](O)CC[C@@H]12 [STANOLONE] with Aromatase (Homo sapiens, UniProt P11511): 10.6

Reading of Ratio for CC1(C(=O)O)CCC2C(CCC3=CC(=O)C=CC32C)C1 (centres undefined) with Aromatase (Homo sapiens, UniProt P11511): 18651

Reading of Ratio for CC(=O)OCC1(C)CCC2C(CCC3=CC(=O)C=CC32C)C1 (centres undefined) with Aromatase (Homo sapiens, UniProt P11511): 273

Reading of Ratio for COC(=O)C1(C)CCC2C(CCC3=CC(=O)C=CC32C)C1 (centres undefined) with Aromatase (Homo sapiens, UniProt P11511): 1898

Reading of Ratio for COC(=O)C1(C)CCC2C(CCC3=CC(=O)C=CC32C)C1C (centres undefined) with Aromatase (Homo sapiens, UniProt P11511): 2600

Reading of Ratio for CC1C2CCC3=CC(=O)C=CC3(C)C2CCC1(C)C(=O)O (centres undefined) with Aromatase (Homo sapiens, UniProt P11511): 23234

Reading of Ratio for CC(=O)C1(C)CCC2C(CCC3=CC(=O)C=CC32C)C1 (centres undefined) with Aromatase (Homo sapiens, UniProt P11511): 670

---

biological target: Aromatase (Homo sapiens); assay: Competitive inhibition of binding to human placental Cytochrome P450 19A1
recorded-metric: pKi
pKi here: minus log base 10 of the concentration, concentration in moles per litre.

Entry CC1C2CCC3=CC(=O)C=CC3(C)C2CCC1(C)C(=O)O (stereo not drawn) ; pKi = 2.92

Entry "C[C@]12CCC(=O)C[C@@H]1CC[C@@H]1[C@@H]2CC[C@]2(C)[C@@H](O)CC[C@@H]12" ; pKi = 6.66

Entry COC(=O)C1(C)CCC2C(CCC3=CC(=O)C=CC32C)C1 (stereo not drawn) ; pKi = 3.89

---

assay: Limiting t1/2 is the half life of aromatase inactivation in the presence of saturating concentrations of inhibitor
recorded-metric: Limiting t1/2
Units required after the number.

Entry "C[C@]12CCC(=O)C[C@@H]1CC[C@@H]1[C@@H]2CC[C@]2(C)[C@@H](O)CC[C@@H]12" ; Limiting t1/2 = 12.9 min

Entry "C[C@]12C=CC(=O)C=C1CC[C@@H]1[C@@H]2CC[C@]2(C)C(=O)OC[C@@H]12" ; Limiting t1/2 = 6.2 min

Entry "C[C@]12C=CC(=O)C=C1CC[C@@H]1[C@@H]2CC[C@]2(C)C(=O)CC[C@@H]12" ; Limiting t1/2 = 12.6 min

Entry CC12CCCC1C1CCC3=CC(=O)C=CC3(C)C1CC2 (centres undefined) ; Limiting t1/2 = 15.2 min
